I'd appreciate it if you could supply MIC values for the items below.
system: Escherichia coli (ATCC25922) or Staphylococcus aureus (ATCC25923); assay: Antibacterial MIC, microdilution method in Mueller-Hinton medium; format: cell-based; conditions: Escherichia coli, 18 h, read-out: Potency (MIC)

[ask] Data request, read-out MIC, for N[C@@H]1C[C@H](N)CN(c2nc(Nc3ccc(C(=O)CC(=O)Nc4ccc5c(c4)OC(F)(F)O5)cc3)nc(N3C[C@@H](N)C[C@H]3CO)n2)C1
[reply] < 16 mg/L

[ask] Entry under review: COc1nc(Nc2ccc(C(=O)CC(=O)Nc3ccc(F)c(F)c3)cc2)nc(N2C[C@H](N)C[C@H](N)C2)n1 . Reported MIC?
[reply] < 16 mg/L

[ask] Reported MIC for C=Cc1ccc(Nc2nc(N3C[C@H](N)C[C@H](N)C3)nc(N3C[C@H](N)C[C@H](N)C3)n2)cc1 : what is it?
[reply] < 64 mg/L

[ask] Can you look up the measured MIC of N[C@@H]1C[C@H](N)CN(c2nc(Nc3cccc(CO)c3)nc(N3C[C@H](N)C[C@H](N)C3)n2)C1 for me?
[reply] > 64 mg/L

[ask] Fill in the blank: the reported MIC of N[C@@H]1C[C@H](N)CN(c2ncnc(Nc3ccc(NC(=O)c4ccc5ccccc5c4O)cc3)n2)C1 is ____.
[reply] < 16 mg/L

[ask] // query MIC value for entry N[C@@H]1C[C@H](N)CN(c2nc(Nc3ccc(C(=O)CC(=O)Nc4ccc(F)cc4)cc3)nc(N3C[C@H](N)C[C@H](N)C3)n2)C1
[reply] < 16 mg/L

[ask] # lookup: MIC of N[C@@H]1C[C@H](N)CN(c2nc(Nc3ccc(C(=O)Nc4cccc(OC(F)(F)F)c4)c(O)c3)nc(N3C[C@H](N)C[C@H](N)C3)n2)C1
[reply] < 16 mg/L

[ask] Quick check: MIC of CN(C)c1ccc(C(=O)Nc2ccc(Nc3nc(N4C[C@H](N)C[C@H](N)C4)nc(N4C[C@H](N)C[C@H](N)C4)n3)cc2)c(O)c1 ?
[reply] < 16 mg/L

[ask] Any idea what MIC was measured for Cc1ccc(S(=O)(=O)N(Cc2ccccc2)c2ccc(Nc3nc(N4C[C@H](N)C[C@H](N)C4)nc(N4C[C@H](N)C[C@H](N)C4)n3)cc2O)cc1 ?
[reply] < 16 mg/L

[ask] Reported MIC for N[C@@H]1C[C@H](N)CN(c2nc(NNC(=O)c3ccccc3O)nc(N3C[C@H](N)C[C@H](N)C3)n2)C1 : what is it?
[reply] < 64 mg/L

[ask] Any idea what MIC was measured for Cc1cccc(NNc2nc(N3C[C@H](N)C[C@H](N)C3)nc(N3C[C@H](N)C[C@H](N)C3)n2)c1 ?
[reply] < 64 mg/L

[ask] Recorded MIC for N[C@@H]1C[C@H](N)CN(c2nc(Nc3ccc(NC(=O)c4ccc(Cl)cc4)c(O)c3)nc(N3C[C@@H](N)C[C@H]3CO)n2)C1 , please?
[reply] < 64 mg/L

[ask] Look at this compound and give its reported MIC. N[C@@H]1C[C@H](N)CN(c2nc(Nc3ccc(C(=O)CC(=O)Nc4ccc(Cl)cc4)cc3)nc(N3C[C@H](N)C[C@H](N)C3)n2)C1
[reply] < 16 mg/L

[ask] If you can, please state the reported MIC value of N[C@@H]1C[C@H](N)CN(c2nc(Nc3ccc(NC(=O)c4cccc([N+](=O)[O-])c4O)cc3)nc(N3C[C@H](N)C[C@H](N)C3)n2)C1 .
[reply] > 64 mg/L

[ask] What value of MIC has been reported for the following compound? N[C@@H]1C[C@H](N)CN(c2nc(Nc3ccc(N4CCOCC4)cc3)nc(N3C[C@H](N)C[C@H](N)C3)n2)C1
[reply] > 64 mg/L

[ask] Reported MIC for NC[C@@H]1CN(c2nc(Nc3ccc(NC(=O)c4ccc5ccccc5c4O)cc3)nc(N3C[C@H](N)C[C@H](N)C3)n2)CC[C@@H]1O : what is it?
[reply] < 16 mg/L

[ask] I'd like to know its MIC. The compound in question is CC(C)CCCCCC(=O)Nc1ccc(S(=O)(=O)Nc2ccc(Nc3nc(N4C[C@H](N)C[C@H](N)C4)nc(N4C[C@H](N)C[C@H](N)C4)n3)cc2O)cc1
[reply] < 16 mg/L

[ask] Would you kindly share the measured MIC for N[C@@H]1C[C@H](N)CN(c2ccc(NC(=O)c3ccc4ccccc4c3O)cc2)C1 ?
[reply] > 64 mg/L

[ask] Endpoint output: MIC of NC[C@@H]1C[C@H](CN)CN(c2nc(Nc3ccc(NC(=O)c4ccc5ccccc5c4O)cc3)nc(N3C[C@H](N)C[C@H](N)C3)n2)C1 . Value?
[reply] < 16 mg/L

[ask] GET /values?readout=MIC&item= Cc1ccc(C(=O)Nc2ccc(Nc3nc(N4C[C@H](N)C[C@H](N)C4)nc(N4CCC[C@@H](O)C4)n3)cc2O)cc1
[reply] > 64 mg/L

[ask] Tell me the measured MIC of N[C@@H]1C[C@H](N)CN(c2nc(Nc3ccc(NC(=O)c4c(O)ccc5ccccc45)cc3)nc(N3C[C@H](N)C[C@H](N)C3)n2)C1 , please.
[reply] < 16 mg/L

[ask] Give its MIC value. Item: N[C@@H]1C[C@H](N)CN(c2nc(Nc3ccc(NC(=O)c4ccc(N5Cc6ccccc6C5)cc4O)c(Cl)c3)nc(N3C[C@H](N)C[C@H](N)C3)n2)C1
[reply] < 16 mg/L

[ask] Request the reported MIC associated with CN(c1nc(N2C[C@H](N)C[C@H](N)C2)nc(N2C[C@H](N)C[C@H](N)C2)n1)C1CCN(Cc2ccccc2)C1 (stereo partly shown)
[reply] < 64 mg/L

[ask] Could you share which MIC value was measured for CC(=O)Nc1ccc(Nc2nc(N3C[C@H](N)C[C@H](N)C3)nc(N3C[C@H](N)C[C@H](N)C3)n2)cc1 [drawing 485] ?
[reply] < 64 mg/L

[ask] Which value of MIC has been reported for COc1ccc(OC)c(NC(=O)CC(=O)c2ccc(Nc3nc(N4C[C@H](N)C[C@H](N)C4)nc(N4C[C@H](N)C[C@H](N)C4)n3)cc2)c1 in the records?
[reply] < 64 mg/L

[ask] Fill in the blank: the reported MIC of COc1ccc(NC(=O)c2cccc(C)c2O)c(Nc2nc(N3C[C@H](N)C[C@H](N)C3)nc(N3C[C@H](N)C[C@H](N)C3)n2)c1 is ____.
[reply] > 64 mg/L

[ask] For the compound shown here, NC[C@@H]1C[C@H](N)CN1c1nc(Nc2ccc(C(=O)CC(=O)Nc3ccc(SC(F)(F)F)cc3)cc2)nc(N2C[C@H](N)C[C@H](N)C2)n1 , give the reported MIC.
[reply] < 16 mg/L

[ask] What does the record list as MIC for N[C@@H]1C[C@H](N)CN(c2nc(Nc3ccc4c(c3)Cc3ccccc3-4)nc(N3C[C@H](N)C[C@H](N)C3)n2)C1 ?
[reply] < 16 mg/L
